Test system: CCRF-CEM leukemia
testMethodNotes: NCI tumour cell line growth inhibition, 48 h
valueType: GI50

# example entries with known answers
* CCCCCCCCCCCCOC1C(C(CC(=O)NCCN2CCCC2)NS(=O)(=O)c2cc(Cl)cc(Cl)c2)OC2OC(C)(C)OC21 (stereo not drawn) | 5.86 nM
* CCN1C(=O)N(CC)C2Nn3c(s/c(=C4\C(=O)N(C)c5ccccc54)c3=O)=NC21 (stereo not drawn) | 3300 nM
* NC(=S)N/N=C/c1cc(-c2cccc(N)c2)ccn1 | 674 nM
* COc1ccc2c3c(Nc4ccc(/C(C)=N/O)cc4)[nH]c4ccccc4c-3c(N=O)c2c1 | 1090 nM
* Nc1ccccc1SC1CC(=O)N(c2ccc(Cl)c(Cl)c2)C1=O (stereo not drawn) | 40600 nM
* Cn1cc(-c2ccc(-c3cncc(Cl)c3N3CCC4(CCNC4=O)CC3)cc2)cn1 | 44500 nM

Exercise: Record `C[C@]12CC[C@@H]3c4ccc(O)c([N+](=O)[O-])c4CC[C@H]3[C@@H]1CC[C@@H]2NS(=O)(=O)c1cccc(Br)c1` : what is its GI50 with CCRF-CEM leukemia?
Key: 2650 nM

Exercise: Subsequent entry: `COc1ccc(-c2csc(NC(=O)CSc3nc(C)c(-c4ccccc4)n3Nc3ccccc3)n2)cc1`
Key: 3920 nM
